- method_summary: qHTS of pediatric cancer cell lines to identify multiple opportunities for drug repurposing: Confirmatory screen for MG 63 (6-TG R) cells (AID 1347119); further: nearly all actives have a fitted effect of over 55% in size
- settings: MG-63 (6-TG resistant) osteosarcoma viability; series mostly up to 45.9 µM
Results filed as inconclusive are left out. Active and inactive are the calls of the source. The call rests on the fitted dose curve; in most records, active means well fitted cell-killing curve with a large enough effect; inconclusive means small, poorly fitted or top-dose-only effect, or effect the other way; inactive means no such curve, though single readings can be large or run the other way.
Returns: one label drawn from Yes (active), No (inactive)

# example entries with known answers
>>> print(df.to_string())
                         chemical_structure  assigned_label
0  CCc1ccc(OCc2ccccc2C(=O)Nc2ccc3nc(C)cc(N)c3c2)cc1             Yes
1          COc1cccc(-c2cc(=O)c3ccccc3o2)c1N              No
2  NC1=N[C@@]2(c3cc(NC(=O)c4ccc(F)cn4)ccc3F)COC[C@@H]2CS1              No
3  CC(=O)O[C@]1(C(C)=O)CC[C@@H]2[C@@H]3C[C@H](C)C4=CC(=O)CC[C@]4(C)[C@H]3CC[C@@]21C              No

Now look at this one.
Request: # outcome recorded in this test, key = `CC1(C)S[C@H]2[C@H](NC(=O)[C@@H](N)c3ccc(O)cc3)C(=O)N2[C@@H]1C(=O)O`
Result: No
